# Test Target: AF647‐labeled hCD1d (Homo sapiens)
# Construct: TEV protease cleavage site ENLYFQS (C); BirA biotinylation site (C); His7 (C); made in house; host or cells: TurboCHO cells (GenScript)
# Procedure Details: Microscale thermophoresis (MST) binding assay
# Experimental Context: K D (MST), detergent with 100 nM AF647‐labeled hCD1d, 25°C; apparent
pKd: −log10 of the molar value. Structures can show the parent of a compound that is named as a salt.
The entries below come with measured pKd values attached.
Measured Endpoint: pKd

Molecule | Measured Endpoint | Value Reported
CCCCCCCCCCCCCCCC[N+](C)(C)C [CTAB, hexadecyltrimethylammonium bromide] | pKd | 4.96
CCCCCCCCCCCCOS(=O)(=O)O [SDS, sodium dodecyl sulfate] | pKd | < 2.00
C[C@H](CCC(=O)NCCC[N+](C)(C)CCCS(=O)(=O)[O-])[C@H]1CC[C@H]2[C@@H]3[C@H](O)C[C@@H]4C[C@H](O)CC[C@]4(C)[C@H]3C[C@H](O)[C@]12C [CHAPS] | pKd | > 3.70

* * *

# Test Target: recombinant human CD1d ectodomain/β2m complex (hCD1d) (Homo sapiens, UniProt P15813+P61769)
# Construct: TEV protease cleavage site ENLYFQS (C); BirA biotinylation site (C); His7 (C); made in house; host or cells: TurboCHO cells (GenScript)
# Procedure Details: Intrinsic tryptophan fluorescence (ITF) binding assay
# Experimental Context: read-out: K D (ITF); detergent with 100 nM hCD1d, 25°C, 1X PBS pH 7.4; apparent
Measured Endpoint: Kd

Molecule | Measured Endpoint | Value Reported
C[C@H](CCC(=O)NCCC[N+](C)(C)CCCS(=O)(=O)[O-])[C@H]1CC[C@H]2[C@@H]3[C@H](O)C[C@@H]4C[C@H](O)CC[C@]4(C)[C@H]3C[C@H](O)[C@]12C [CHAPS] | Kd | < 400 µM

* * *

# Test Target: AF647‐labeled hCD1d (Homo sapiens, UniProt P15813)
# Construct: TEV protease cleavage site ENLYFQS (C); BirA biotinylation site (C); His7 (C); made in house; host or cells: TurboCHO cells (GenScript)
# Sequence (P15813 whole entry, looked up): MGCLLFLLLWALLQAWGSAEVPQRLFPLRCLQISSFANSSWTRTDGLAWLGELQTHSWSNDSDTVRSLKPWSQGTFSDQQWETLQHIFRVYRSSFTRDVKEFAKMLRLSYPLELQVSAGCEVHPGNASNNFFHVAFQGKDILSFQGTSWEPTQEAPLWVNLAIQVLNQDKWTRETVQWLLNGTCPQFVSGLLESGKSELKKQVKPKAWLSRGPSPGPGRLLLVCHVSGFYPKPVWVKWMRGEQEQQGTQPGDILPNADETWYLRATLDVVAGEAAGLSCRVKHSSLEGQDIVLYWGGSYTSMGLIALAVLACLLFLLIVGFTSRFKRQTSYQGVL
# Procedure Details: Microscale thermophoresis (MST) binding assay
# Experimental Context: 18:1 LPC titration with 0.05% CHAPS; read-out: K D (MST) of lipid
pKd: −log10 of the molar value.

Record Smiles | pKd
CCCCCCCC/C=C\CCCCCCCC(=O)OC[C@@H](O)COP(=O)([O-])OCC[N+](C)(C)C | 5.25

* * *

The entries below come with measured ΔT m (NanoDSF) values attached.
# Test Target: hCD1d (Homo sapiens, UniProt P15813+P61769)
# Sequence (P61769+P15813 fused): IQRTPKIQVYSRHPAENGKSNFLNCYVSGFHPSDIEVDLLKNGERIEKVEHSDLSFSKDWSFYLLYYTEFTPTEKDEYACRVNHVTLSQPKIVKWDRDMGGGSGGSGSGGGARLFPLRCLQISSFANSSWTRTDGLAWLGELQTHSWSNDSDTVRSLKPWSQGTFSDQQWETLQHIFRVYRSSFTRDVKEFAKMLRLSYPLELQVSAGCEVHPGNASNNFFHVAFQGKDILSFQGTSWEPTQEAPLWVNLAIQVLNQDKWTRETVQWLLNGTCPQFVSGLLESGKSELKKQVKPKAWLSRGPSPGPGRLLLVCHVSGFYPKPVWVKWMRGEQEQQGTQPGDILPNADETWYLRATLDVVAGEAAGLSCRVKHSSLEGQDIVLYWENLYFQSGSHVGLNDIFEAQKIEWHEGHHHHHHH
# Procedure Details: Nano differential scanning fluorimetry (nanoDSF) thermal stability
# Assay type: binding
# Set-up: TEV protease cleavage site ENLYFQS (C); BirA biotinylation site (C); His7 (C); made in house; host or cells: TurboCHO cells (GenScript)
# Experimental Context: T m difference between hCD1d in the absence and presence of 1000 μM detergent; 1 μM hCD1d
Structures can show the parent of a compound that is named as a salt.

Compound | Test Target | Endpoint Unit | ΔT m (NanoDSF)
CCCCCCCCCCCCOS(=O)(=O)O [SDS, sodium dodecyl sulfate] | hCD1d (Homo sapiens, UniProt P15813+P61769) | °C | −13.1
CCCCCCCCCCCC[N+](C)(C)[O-] [LDAO, lauryldimethylamine‐N‐oxide] | hCD1d (Homo sapiens, UniProt P15813+P61769) | °C | −13.4
CCCCCCCCCCCCCCCC[N+](C)(C)C [CTAB, hexadecyltrimethylammonium bromide] | hCD1d (Homo sapiens, UniProt P15813+P61769) | °C | −14.2

* * *

# Test Target: AF647‐labeled hCD1d (Homo sapiens)
# Construct: TEV protease cleavage site ENLYFQS (C); BirA biotinylation site (C); His7 (C); made in house; host or cells: TurboCHO cells (GenScript)
# Procedure Details: Microscale thermophoresis (MST) binding assay
# Experimental Context: detergent with 100 nM AF647‐labeled hCD1d, 25°C; apparent; read-out: K D (MST)
pKd: −log10 of the molar value.

Compound | Modifier | pKd
C[C@H](CCC(=O)O)[C@H]1CC[C@H]2[C@@H]3CC[C@@H]4C[C@H](O)CC[C@]4(C)[C@H]3C[C@H](O)[C@]12C [Deoxycholate, sodium deoxycholate] | < | 2.00
CCCCCCCCCCCC[N+](C)(C)[O-] [LDAO, lauryldimethylamine‐N‐oxide] | = | 3.80
CCCCCCCCO[C@@H]1O[C@H](CO)[C@@H](O)[C@H](O)[C@H]1O [ODG, n‐octyl‐β‐D‐glucopyranoside] | = | 2.18

* * *

The entries below come with measured ΔTm aveage values attached.
# Test Target: hCD1d (Homo sapiens, UniProt P15813+P61769)
# Procedure Details: Nano differential scanning fluorimetry (nanoDSF) thermal stability
# Format: binding
# Set-up: TEV protease cleavage site ENLYFQS (C); BirA biotinylation site (C); His7 (C); made in house; host or cells: TurboCHO cells (GenScript)
# Experimental Context: Figure 5C; nanoDSF, hCD1d with detergent
Where a name gives a salt, the structure may show the parent alone.
Measured Endpoint: ΔTm aveage (°C)

Compound | Value Reported
CCCCCCCCCCCCOS(=O)(=O)O [SDS, sodium dodecyl sulfate] | -13.07
C[C@H](CCC(=O)O)[C@H]1CC[C@H]2[C@@H]3CC[C@@H]4C[C@H](O)CC[C@]4(C)[C@H]3C[C@H](O)[C@]12C [Deoxycholate, sodium deoxycholate] | -10
CCCCCCCCCCCC[N+](C)(C)[O-] [LDAO, lauryldimethylamine‐N‐oxide] | -13.43
CCCCCCCCCCCCCCCC[N+](C)(C)C [CTAB, hexadecyltrimethylammonium bromide] | -14.17
C[C@H](CCC(=O)NCCC[N+](C)(C)CCCS(=O)(=O)[O-])[C@H]1CC[C@H]2[C@@H]3[C@H](O)C[C@@H]4C[C@H](O)CC[C@]4(C)[C@H]3C[C@H](O)[C@]12C | -1.3
CCCCCCCCO[C@@H]1O[C@H](CO)[C@@H](O)[C@H](O)[C@H]1O [ODG, n‐octyl‐β‐D‐glucopyranoside] | -0.83

* * *

# Test Target: CSP 319‐328/HLA‐B*08:01/hβ2M complex (Homo sapiens, UniProt P01889, A93T/A95T/D138N/E176V/E187T/K202T/Q94N/R180D/S35A/V36M/Y33D/Y91F)
# Construct: made in house
# Procedure Details: MST with peptide/HLA complex
# Assay type: binding
# Experimental Context: 100 nM AF647‐labeled peptide/HLA, 25°C; read-out: K D (MST), peptide/HLA
pKd: −log10 of the molar value.

Molecule | pKd
CCCCCCCCO[C@@H]1O[C@H](CO)[C@@H](O)[C@H](O)[C@H]1O [ODG, n‐octyl‐β‐D‐glucopyranoside] | 2.40

* * *

# Test Target: hCD1d (Homo sapiens, UniProt P15813+P61769)
# Procedure Details: Nano differential scanning fluorimetry (nanoDSF) thermal stability
# Format: binding
# Set-up: TEV protease cleavage site ENLYFQS (C); BirA biotinylation site (C); His7 (C); made in house; host or cells: TurboCHO cells (GenScript)
# Experimental Context: approximate
Where a name gives a salt, the structure may show the parent alone.

Compound | ΔT m, detergent class summary
CCCCCCCCCCCCOS(=O)(=O)O [SDS, sodium dodecyl sulfate] | −12 to −15 °C
CCCCCCCCO[C@@H]1O[C@H](CO)[C@@H](O)[C@H](O)[C@H]1O [ODG, n‐octyl‐β‐D‐glucopyranoside] | −1 to −2 °C
CCCCCCCCCCCC[N+](C)(C)[O-] [LDAO, lauryldimethylamine‐N‐oxide] | −12 to −15 °C
C[C@H](CCC(=O)NCCC[N+](C)(C)CCCS(=O)(=O)[O-])[C@H]1CC[C@H]2[C@@H]3[C@H](O)C[C@@H]4C[C@H](O)CC[C@]4(C)[C@H]3C[C@H](O)[C@]12C | −1 to −2 °C
CCCCCCCCCCCCCCCC[N+](C)(C)C [CTAB, hexadecyltrimethylammonium bromide] | −12 to −15 °C

* * *

# Test Target: AF647‐labeled hCD1d (Homo sapiens, UniProt P15813)
# Construct: TEV protease cleavage site ENLYFQS (C); BirA biotinylation site (C); His7 (C); made in house; host or cells: TurboCHO cells (GenScript)
# Procedure Details: Microscale thermophoresis (MST) binding assay
# Experimental Context: MST - Kd (uM) average, Figure 5B; detergent binding to hCD1d
Measured Endpoint: Kd (µM)

Molecule | Measured Endpoint | Value Reported
CCCCCCCCCCCCCCCC[N+](C)(C)C [CTAB, hexadecyltrimethylammonium bromide] | Kd | 10.9
C[C@H](CCC(=O)NCCC[N+](C)(C)CCCS(=O)(=O)[O-])[C@H]1CC[C@H]2[C@@H]3[C@H](O)C[C@@H]4C[C@H](O)CC[C@]4(C)[C@H]3C[C@H](O)[C@]12C [CHAPS] | Kd | 90.4

These entries and their values trace back to paper PMC12720774.
